Just for reference, patent US5001158A is where these values come from.

- test-description: Plasma concentrations of A1 and A2 after oral administration, mice
- Type: in vivo
- settings: mouse, after mixture A1 A2 574 mg/m^2 p.o., 1 H 30 MIN, n = 10
experimental-endpoint: concentration at 1.5 h (µM)
Numbers only, in µM.

compound C[S+]([O-])CCN(N=O)C(=O)NCCCl (centres unmarked) [Compound A1] , concentration at 1.5 h observed: 35.4

Consider the additional compound presented here.
compound C[S+]([O-])CCNC(=O)N(CCCl)N=O (centres unmarked) [Compound A2] , concentration at 1.5 h observed: 10.8

###

- test-description: Plasma concentrations of A1 and A2 after oral administration, rabbits
- Assay type: in vivo
- settings: rabbit, after mixture A1 A2 574 mg/m^2 p.o., 1 H 30 MIN, n = 5
Please provide measured concentration at 1.5 h for the entries that follow.
Numbers only, in µM.

compound C[S+]([O-])CCNC(=O)N(CCCl)N=O (centres unmarked) , concentration at 1.5 h observed: 9.2

Consider the additional compound presented here.
compound C[S+]([O-])CCN(N=O)C(=O)NCCCl (centres unmarked) , concentration at 1.5 h observed: 27

###

- test-description: Plasma concentrations of A1 and A2 after oral administration, rats
- Type: in vivo
- settings: rat, after CNCC 500 mg/m^2 p.o., 4 H 30 MIN, n = 5
Please provide measured concentration at 4.5 h for the entries that follow.
One number for each entry, in µM.

State recorded concentration at 4.5 h for all listed compounds.
1. C[S+]([O-])CCNC(=O)N(CCCl)N=O (centres unmarked)
2. C[S+]([O-])CCN(N=O)C(=O)NCCCl (centres unmarked)

Response:
1: 2.2; 2: 3.9

###

- test-description: Plasma concentrations of A1 and A2 after oral administration, mice
- Assay type: in vivo
- settings: mouse, after CNCC 500 mg/m^2 p.o., 15 MIN, n = 10
experimental-endpoint: concentration at 0.25 h (µM)
Numbers only, in µM.

compound C[S+]([O-])CCN(N=O)C(=O)NCCCl (centres unmarked) , concentration at 0.25 h observed: 34.2

Consider the additional compound presented here.
compound C[S+]([O-])CCNC(=O)N(CCCl)N=O (centres unmarked) , concentration at 0.25 h observed: 13.2

###

- test-description: Plasma concentrations of A1 and A2 after oral administration, mice
- Type: in vivo
- settings: mouse, after mixture A1 A2 574 mg/m^2 p.o., 4 H 30 MIN, n = 10
Please provide measured concentration at 4.5 h for the entries that follow.
Give bare numbers, in nM.

molecule C[S+]([O-])CCN(N=O)C(=O)NCCCl (centres unmarked) , concentration at 4.5 h observed: 4300

Consider the additional molecule presented here.
molecule C[S+]([O-])CCNC(=O)N(CCCl)N=O (centres unmarked) , concentration at 4.5 h observed: 900

###

- test-description: Plasma concentrations of A1 and A2 after oral administration, rats
- Type: in vivo
- settings: rat, after CNCC 500 mg/m^2 p.o., 5 MIN, n = 5
Please provide measured concentration at 5 min for the entries that follow.
Answers are plain numbers, in nM.

compound C[S+]([O-])CCN(N=O)C(=O)NCCCl (centres unmarked) , concentration at 5 min observed: 2800

Consider the additional compound presented here.
compound C[S+]([O-])CCNC(=O)N(CCCl)N=O (centres unmarked) , concentration at 5 min observed: 900

###

- test-description: Plasma concentrations of A1 and A2 after oral administration, mice
- Type: in vivo
- settings: mouse, after mixture A1 A2 574 mg/m^2 p.o., 2 H, n = 10
experimental-endpoint: concentration at 2 h (µM)
Give bare numbers, in µM.

compound C[S+]([O-])CCNC(=O)N(CCCl)N=O (centres unmarked) , concentration at 2 h observed: 6.3

Consider the additional compound presented here.
compound C[S+]([O-])CCN(N=O)C(=O)NCCCl (centres unmarked) , concentration at 2 h observed: 23.3

###

Please provide measured concentration at 1.5 h for the entries that follow.
- test-description: Plasma concentrations of A1 and A2 after oral administration, rats
- Type: in vivo
- settings: rat, after mixture A1 A2 574 mg/m^2 p.o., 1 H 30 MIN, n = 5
Answers are plain numbers, in µM.

compound C[S+]([O-])CCN(N=O)C(=O)NCCCl (centres unmarked) , concentration at 1.5 h observed: 29.2

---
compound C[S+]([O-])CCNC(=O)N(CCCl)N=O (centres unmarked) , concentration at 1.5 h observed: 12.9

###

Please provide measured concentration at 0.5 h for the entries that follow.
- test-description: Plasma concentrations of A1 and A2 after oral administration, mice
- Format: in vivo
- settings: mouse, after CNCC 500 mg/m^2 p.o., 30 MIN, n = 10
Answers are plain numbers, in µM.

molecule C[S+]([O-])CCNC(=O)N(CCCl)N=O (centres unmarked) , concentration at 0.5 h observed: 35.7

Consider the additional molecule presented here.
molecule C[S+]([O-])CCN(N=O)C(=O)NCCCl (centres unmarked) , concentration at 0.5 h observed: 71.4

###

- test-description: Plasma concentrations of A1 and A2 after oral administration, rabbits
- Format: in vivo
- settings: rabbit, after mixture A1 A2 574 mg/m^2 p.o., 30 MIN, n = 5
experimental-endpoint: concentration at 0.5 h (µM)
One number for each entry, in µM.

compound C[S+]([O-])CCNC(=O)N(CCCl)N=O (centres unmarked) [Compound A2] , concentration at 0.5 h observed: 16.5

Consider the additional compound presented here.
compound C[S+]([O-])CCN(N=O)C(=O)NCCCl (centres unmarked) [Compound A1] , concentration at 0.5 h observed: 41

###

- test-description: 50% lethal dose (LD50 acute) in mice
- Type: in vivo, mice (male B6 D2 F1 /OLA)
- settings: mouse, in vivo, ip, mortality before the 8th day
Please provide measured LD50 for the entries that follow.

compound `CC(=O)SCCNC(=O)N(CCCl)N=O` , LD50 observed: 19 to 25 mg/kg

compound `CSCCNC(=O)N(CCCl)N=O` , LD50 observed: 19 to 25 mg/kg

compound `O=NN(CCCl)C(=O)NCCS` , LD50 observed: 19 to 25 mg/kg

Consider the additional compound presented here.
compound `O=NN(CCCl)C(=O)NCCSC(c1ccccc1)(c1ccccc1)c1ccccc1` , LD50 observed: > 625 mg/kg

###

- test-description: Plasma concentrations of A1 and A2 after oral administration, rabbits
- Format: in vivo
- settings: rabbit, after mixture A1 A2 574 mg/m^2 p.o., 45 MIN, n = 5
experimental-endpoint: concentration at 0.75 h

compound C[S+]([O-])CCNC(=O)N(CCCl)N=O (centres unmarked) [Compound A2] , concentration at 0.75 h observed: 15 µM

---
compound C[S+]([O-])CCN(N=O)C(=O)NCCCl (centres unmarked) [Compound A1] , concentration at 0.75 h observed: 39.2 µM

###

- test-description: Plasma concentrations of A1 and A2 after oral administration, rabbits
- Format: in vivo
- settings: rabbit, after CNCC 500 mg/m^2 p.o., 2 H, n = 5
experimental-endpoint: concentration at 2 h (µM)
One number for each entry, in µM.

compound C[S+]([O-])CCNC(=O)N(CCCl)N=O (centres unmarked) , concentration at 2 h observed: 3.5

Consider the additional compound presented here.
compound C[S+]([O-])CCN(N=O)C(=O)NCCCl (centres unmarked) , concentration at 2 h observed: 7.4

###

Please provide measured concentration at 0.5 h for the entries that follow.
- test-description: Plasma concentrations of A1 and A2 after oral administration, mice
- Format: in vivo
- settings: mouse, after mixture A1 A2 574 mg/m^2 p.o., 30 MIN, n = 10
Give bare numbers, in µM.

molecule C[S+]([O-])CCN(N=O)C(=O)NCCCl (centres unmarked) , concentration at 0.5 h observed: 177

Consider the additional molecule presented here.
molecule C[S+]([O-])CCNC(=O)N(CCCl)N=O (centres unmarked) , concentration at 0.5 h observed: 66.3
